- Test System: BTK (Homo sapiens)
- Sequence (Q06187 402-655 limits assumed): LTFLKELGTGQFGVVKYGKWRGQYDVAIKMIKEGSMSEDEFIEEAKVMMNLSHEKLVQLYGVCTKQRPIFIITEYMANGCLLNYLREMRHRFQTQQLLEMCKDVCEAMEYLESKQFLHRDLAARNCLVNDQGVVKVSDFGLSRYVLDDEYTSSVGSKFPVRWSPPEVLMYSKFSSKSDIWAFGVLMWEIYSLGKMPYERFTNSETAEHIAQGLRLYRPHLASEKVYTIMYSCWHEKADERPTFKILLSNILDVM
- Protocol Notes: biochemical
- Experimental Parameters: read-out: BTK inhibition (%), 0.75 uM BTK, […] probe 3l, 15 min preincubation
Below: a set of entries, each annotated with reported inhibition at 10 µM.
Answer in %, number only, no unit symbol.

Smiles Structure	Value Type	Val
Cc1nc(Nc2ncc(C(=O)Nc3cc(NC(=O)c4cccc(C(F)(F)F)c4)ccc3C)s2)cc(N2CCN(CCO)CC2)n1	inhibition at 10 µM	47.9
CC(=O)O[C@H]1CC(=O)OC(C)(C)[C@@H]2CC(=O)[C@]3(C)[C@H](CC[C@@]4(C)[C@H](c5ccoc5)OC(=O)[C@H]5O[C@]543)[C@@]12C	inhibition at 10 µM	13.9
NC(=O)/C(=C/n1cnc(-c2cc(C(F)(F)F)cc(C(F)(F)F)c2)n1)c1cncnc1	inhibition at 10 µM	-10
CNC(=O)[C@H](Cc1c[nH]c2ccccc12)NC(=O)[C@@H](CC(=O)NO)CC(C)C	inhibition at 10 µM	19.3

Entry "O=S(=O)(O)CCSSCCS(=O)(=O)O" has what inhibition at 10 µM? -8.6
